Assayed System: UDP-galactopyranose mutase (Mycobacterium tuberculosis (strain ATCC 25618 / H37Rv)) (UniProt P9WIQ1)
Sequence (P9WIQ1 whole entry, looked up): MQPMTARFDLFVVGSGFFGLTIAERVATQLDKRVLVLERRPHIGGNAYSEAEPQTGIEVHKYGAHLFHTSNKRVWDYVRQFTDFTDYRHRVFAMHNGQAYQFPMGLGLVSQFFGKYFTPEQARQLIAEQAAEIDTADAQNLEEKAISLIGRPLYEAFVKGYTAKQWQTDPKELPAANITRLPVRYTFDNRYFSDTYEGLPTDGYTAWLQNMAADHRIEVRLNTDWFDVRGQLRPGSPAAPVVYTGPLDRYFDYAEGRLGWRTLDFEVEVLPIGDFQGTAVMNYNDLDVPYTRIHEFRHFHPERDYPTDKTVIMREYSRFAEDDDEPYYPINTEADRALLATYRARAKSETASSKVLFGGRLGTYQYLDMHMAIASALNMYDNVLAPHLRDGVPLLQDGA
Protocol Notes: blockers of Mtb UDP-galactopyranose mutase – biochemical, fluorescence polarization, single point, primary screen (AID 504406)
Measurement Parameters: purified UGM, fluorescence polarization probe displacement; at 10 µM; hits give high values
Hit rate of the full screen: of about 320,000 compounds, about 190 (0.059%) were called active. For the sample, actives were picked, then their nearest neighbours and some compounds at random.
Outcome Measure: inhibition (%)
Please reply with the bare figure in % and do not write the unit itself.

CC(C)CNC(=O)C(=O)NCC(c1ccc2c(c1)OCO2)N1CCOCC1 (stereo not given); -1.37

# context switch: different compound, same inhibition
Enquiry: Bench note: what inhibition did CCN1CC=C2C(C#N)=C(N)C(C#N)(C#N)[C@H](c3ccoc3)[C@H]2C1 show?
Return: 13.1

###

Recorded inhibition by entry
Assayed System: UDP-galactopyranose mutase (Mycobacterium tuberculosis (strain ATCC 25618 / H37Rv)) (UniProt P9WIQ1)
Protocol Notes: blockers of Mtb UDP-galactopyranose mutase – biochemical, fluorescence polarization, single point, primary screen (AID 504406)
Measurement Parameters: purified UGM, fluorescence polarization probe displacement; at 10 µM; hits give high values
The whole screen tested about 320,000 compounds, of which about 190 (0.059%) were called active. For the sample, actives were picked, then their nearest neighbours and some compounds at random.
Please reply with the bare figure in % and do not write the unit itself.

Check out these entries, answers already filled in.
Cc1cc(NC(=O)CCS(=O)(=O)c2ccc(F)cc2)no1; 1.59
CC(=O)c1nn(-c2cccc(Br)c2)cc1C(=O)c1cccc2ccccc12; 2.24

Enquiry: Bench note: what inhibition did CCN1C(=NCc2ccc(OC)cc2)N[C@@H](CCc2ccccc2)[C@H](C(=O)NCc2ccc(OC)cc2)[C@H]1C show?
Return: 0.311

Enquiry: Repeat with COc1cc(NC(=O)C2=C(C)OCCS2)c(Cl)cc1C(=O)NCCN1CCN(C)CC1
Return: -0.476

Enquiry: Repeat with Cc1cccc(N(CC(=O)Nc2ccc(-c3nc4ccc(C)cc4s3)cc2)S(C)(=O)=O)c1
Return: -2.81

Enquiry: Repeat with O=C(NCC#CCSc1nnc(-c2cccc3ccccc23)o1)c1cccs1
Return: 0.904

Enquiry: Repeat with CC(NC(=O)c1ccc(S(=O)(=O)Nc2ccccc2)cc1)c1ccc(S(N)(=O)=O)cc1 (stereo not given)
Return: -0.443

Enquiry: Repeat with CC1CC(=O)N(CC(=O)Nc2cccc(Cl)c2)c2ccccc2S1(=O)=O (stereo not given)
Return: -0.479

Enquiry: Repeat with Cc1cc(C)cc(N(CC(=O)NCC2CCCO2)S(=O)(=O)c2c(C)noc2C)c1 (stereo not given)
Return: -1.07

Enquiry: Repeat with Cc1ccc(S(=O)(=O)N2CCC(C)CC2)cc1C(=O)NCc1ccccn1
Return: -2.55

###

Assayed System: UDP-galactopyranose mutase (Mycobacterium tuberculosis (strain ATCC 25618 / H37Rv)) (UniProt P9WIQ1)
Protocol Notes: blockers of Mtb UDP-galactopyranose mutase – biochemical, fluorescence polarization, single point, primary screen (AID 504406)
Measurement Parameters: purified UGM, fluorescence polarization probe displacement; at 10 µM; hits give high values
Screen size: about 320,000 compounds; about 190 (0.059%) were called active. For the sample, actives were picked, then their nearest neighbours and some compounds at random.
Outcome Measure: inhibition (%)
Please reply with the bare figure in % and do not write the unit itself.

Check out these entries, answers already filled in.
CC(Sc1nc2cc(Cl)ccc2s1)C(=O)Nc1ccc2c(c1)OCO2 (configuration not stated); 1.22
Cc1ccc(N)cc1-n1c(C)ccc1C; -4.8
Cc1ccc(S(=O)(=O)N(CC(=O)N/N=C/c2ccc(F)cc2)c2cccc3cccnc23)cc1; 1.31

Enquiry: Bench note: what inhibition did COc1ccc([N+](=O)[O-])cc1NC(=O)c1ccc(N(Cc2ccccc2C)S(C)(=O)=O)cc1 show?
Return: 0.0791

Enquiry: Repeat with COC(=O)/C=C(\Oc1ccccc1)C1(O)CCCCC1
Return: -0.0675

Enquiry: Repeat with CC(=O)Nc1ccc(S(=O)(=O)NC(C)C(=O)OCCOc2ccc(F)cc2)cc1 (configuration not stated)
Return: -1.41

Enquiry: Repeat with CC(=O)C1=C(O)C(=O)N(c2ccc(S(N)(=O)=O)cc2)C1c1ccccc1F (configuration not stated)
Return: 3.63

###

Assayed System: UDP-galactopyranose mutase (Mycobacterium tuberculosis (strain ATCC 25618 / H37Rv))
Protocol Notes: blockers of Mtb UDP-galactopyranose mutase – biochemical, fluorescence polarization, single point, primary screen (AID 504406)
Measurement Parameters: purified UGM, fluorescence polarization probe displacement; at 10 µM
Screen size: about 320,000 compounds; about 190 (0.059%) were called active. Cut-off read from the data, not from the text of the source: active = inhibition above about 10% (passing the limit was not always enough); inconclusive = no clear call, values can overlap the other calls. The sample holds actives, similar compounds and a random draw of the others, so the mix is not that of the screen.
// one of t = active, f = inactive, no free text

Solved entries:
COc1ccnc(Oc2ccccc2)c1-c1ncn[nH]1; f
CCCCN(CC)CCNC(=O)CCNC(=O)Cn1ccc2ccccc2c1=O; f

Enquiry: What outcome does the record of this test show for O=C1CCc2cc(S(=O)(=O)Nc3ccc(C(F)(F)F)cc3)cc3c2N1CC3 ?
Return: f

Enquiry: Repeat with Cc1noc(C)c1S(=O)(=O)Nc1ccc(C(=O)O)cc1
Return: f

Enquiry: Repeat with CCc1c(C)[nH]c(=S)c(C#N)c1C
Return: f

Enquiry: Repeat with Cc1ccc(-c2nn(-c3cccc(F)c3)cc2CNCCc2ccncc2)o1
Return: f

Enquiry: Repeat with COc1cccc(C2=CC(=O)C[C@H](c3ccc(OC)c(OC)c3)C2)c1
Return: f

Enquiry: Repeat with NS(=O)(=O)c1ccc(NC(=O)COC(=O)C2(c3ccc(F)cc3)CCCC2)cc1
Return: f

###

Assayed System: UDP-galactopyranose mutase (Mycobacterium tuberculosis (strain ATCC 25618 / H37Rv))
Protocol Notes: blockers of Mtb UDP-galactopyranose mutase – biochemical, fluorescence polarization, single point, primary screen (AID 504406)
Measurement Parameters: purified UGM, fluorescence polarization probe displacement; at 10 µM
The whole screen tested about 320,000 compounds, of which about 190 (0.059%) were called active. Rule as the data show it: active = inhibition above about 10% (passing the limit was not always enough); inconclusive = no clear call, values can overlap the other calls. The list comes from a sample in which actives are over-represented; it also holds close analogues and randomly drawn compounds.
// one of active, inactive, no free text

Solved entries:
NC1=NC(=O)C(Cc2cccc(Cl)c2)S1 (stereo not drawn); inactive
Cc1cccc(NC(=O)c2ccc3c(=O)n(CC4CCCO4)c(=S)[nH]c3c2)c1 (stereo not drawn); inactive

As a next step, examine the compound that follows.
Enquiry: What outcome does the record of this test show for COC(=O)C1(C)CC1(c1ccccc1)c1ccccc1 (stereo not drawn) ?
Return: inactive

###

Assayed System: UDP-galactopyranose mutase (Mycobacterium tuberculosis (strain ATCC 25618 / H37Rv)) (UniProt P9WIQ1)
Protocol Notes: blockers of Mtb UDP-galactopyranose mutase – biochemical, fluorescence polarization, single point, primary screen (AID 504406)
Measurement Parameters: purified UGM, fluorescence polarization probe displacement; at 10 µM; hits give high values
Screen size: about 320,000 compounds; about 190 (0.059%) were called active. The entries come from a sample that favours actives as a whole.
Recorded inhibition by entry
Please reply with the bare figure in % and do not write the unit itself.

COCCN(C(=O)C(C)C)c1nnc(-c2ccc(C(C)(C)C)cc2)s1; 2.82
O=C(CC1CCCCC1)Nc1c2c(nn1-c1ccc(F)cc1)CS(=O)(=O)C2; -1.58
Cn1c(=O)c2c(nc(OCc3cccnc3)n2Cc2ccccc2)n(C)c1=O; 7.96

Enquiry: Bench note: what inhibition did CC(C(=O)O)N1C(=O)c2cccc3cccc1c23 (stereo not drawn) show?
Return: 3.93

Enquiry: Repeat with CCc1ccc(C(=O)N2CCN(S(=O)(=O)c3sc(C(=O)O)c(C)c3C(=O)O)CC2)cc1
Return: 2.51

Enquiry: Repeat with COc1c(C(=O)N2CCCC2)ccc2ccccc12
Return: -0.901

Enquiry: Repeat with Cc1ccc(C(=O)CSc2nc3ccccc3c(=O)n2N)o1
Return: -2.34

Enquiry: Repeat with COc1cc(S(=O)(=O)N(Cc2cccs2)C2CC2)ccc1-n1cnnn1
Return: -0.867

###

Assayed System: UDP-galactopyranose mutase (Mycobacterium tuberculosis (strain ATCC 25618 / H37Rv)) (UniProt P9WIQ1)
Protocol Notes: blockers of Mtb UDP-galactopyranose mutase – biochemical, fluorescence polarization, single point, primary screen (AID 504406)
Measurement Parameters: purified UGM, fluorescence polarization probe displacement; at 10 µM; hits give high values
The campaign covered roughly 320,000 compounds. About 190 (0.059%) were called active. The full list was thinned out, with actives kept by preference.
Outcome Measure: inhibition (%)
Please reply with the bare figure in % and do not write the unit itself.

Enquiry: Bench note: what inhibition did CCOC(=O)c1c(NC(=O)CN2C(=O)NC3(CCC(C)CC3)C2=O)sc(C)c1CC (stereo not drawn) show?
Return: -4.1

Enquiry: Repeat with Cn1c(CC2Sc3ccccc3NC2=O)nnc1SCC(=O)c1ccc(Cl)cc1 (stereo not drawn)
Return: 1.26

Enquiry: Repeat with O=C(c1ccc(Cl)c(S(=O)(=O)N2CCCCCC2)c1)N1CCN(c2ccc(O)cc2)CC1
Return: 0.826
